Tested on: Fer (mouse)
Assay: phosphorylation enrichment, bacterial display (enrichment ratio); higher = better substrate or ligand; peptides without Tyr show the background;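 also: 11-residue human phosphosite peptides and single-mutation variants displayed on the E. coli surface, counted by deep sequencing, each peptide's frequency after selection divided by its frequency in the unselected input library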;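 also: frequency after pTyr selection over input frequency; kinase dosed for 20-30% of maximal phosphorylation in three min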
Recorded metric: phosphorylation enrichment

> print(dat)
                     polymer.sequence             recorded.metric  recorded.measurement
 1      KGEDFYSVTCH [FHL1_Y149_C150S]  phosphorylation enrichment                  3.47
 2      LSSEMCVKSYT [F5_Y2149_Y2149C]  phosphorylation enrichment                  1.46
 3    VGTKRYMAPKV [ACVRL1_Y375_E379K]  phosphorylation enrichment                 0.443
 4             HVIKLYGACSQ [RET_Y791]  phosphorylation enrichment                 0.545
 5          EYFDGYWGYSV [ITGA2B_Y265]  phosphorylation enrichment                   1.4
 6    REEKNYKHKET [BCLAF1_Y459_L461H]  phosphorylation enrichment                 0.647
 7          SLDLSYFPTSS [EMD_Y181_YF]  phosphorylation enrichment                 0.353
 8     PIYLYYLMDLS [ITGB2_Y131_D128Y]  phosphorylation enrichment                  4.54
 9  LDFNEYFRGLN [HPRT1_Y198_D201G_YF]  phosphorylation enrichment                  0.62
10    FADIAYSFRHG [PAH_Y166_N167S_YF]  phosphorylation enrichment                 0.393

---

Entries and their phosphorylation enrichment values follow.
Molecular target: EPHB1 (UniProt P54762)
Sequence (P54762 whole entry, looked up): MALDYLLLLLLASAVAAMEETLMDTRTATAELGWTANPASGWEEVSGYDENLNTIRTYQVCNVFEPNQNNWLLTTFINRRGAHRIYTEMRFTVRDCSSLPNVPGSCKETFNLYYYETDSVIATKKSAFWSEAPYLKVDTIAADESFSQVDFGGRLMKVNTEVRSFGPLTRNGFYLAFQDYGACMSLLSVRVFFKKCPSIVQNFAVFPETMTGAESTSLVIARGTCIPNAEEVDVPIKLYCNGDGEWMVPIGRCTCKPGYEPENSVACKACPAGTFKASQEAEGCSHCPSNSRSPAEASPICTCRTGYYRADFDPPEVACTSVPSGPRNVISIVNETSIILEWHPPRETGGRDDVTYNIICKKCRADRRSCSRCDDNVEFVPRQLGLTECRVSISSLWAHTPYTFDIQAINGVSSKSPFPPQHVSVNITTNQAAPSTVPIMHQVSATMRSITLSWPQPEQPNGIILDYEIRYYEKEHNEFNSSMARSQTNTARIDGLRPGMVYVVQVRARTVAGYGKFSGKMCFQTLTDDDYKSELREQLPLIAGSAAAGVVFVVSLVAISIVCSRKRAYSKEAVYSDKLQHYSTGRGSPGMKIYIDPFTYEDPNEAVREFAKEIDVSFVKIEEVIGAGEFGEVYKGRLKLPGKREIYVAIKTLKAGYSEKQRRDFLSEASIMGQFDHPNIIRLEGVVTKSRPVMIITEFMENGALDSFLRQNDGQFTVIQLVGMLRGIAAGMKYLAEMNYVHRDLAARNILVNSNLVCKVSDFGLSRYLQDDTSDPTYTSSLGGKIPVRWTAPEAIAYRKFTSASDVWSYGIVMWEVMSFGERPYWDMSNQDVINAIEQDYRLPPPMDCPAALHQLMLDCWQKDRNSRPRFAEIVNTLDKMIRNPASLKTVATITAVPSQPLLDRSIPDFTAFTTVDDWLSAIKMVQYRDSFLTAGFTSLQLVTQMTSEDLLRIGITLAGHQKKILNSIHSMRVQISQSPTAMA
Assay: phosphorylation enrichment, bacterial display (enrichment ratio); higher = better substrate or ligand; peptides without Tyr show the background
Recorded metric: phosphorylation enrichment

> print(dat)
                    polymer.sequence  recorded.measurement
1           TWNPKYTLRSH [STRN3_Y474]                 0.399
2    NVSILYTASQA [CTNNA1_Y222_P219S]                 0.548
3       ASMAKYFASEI [ACADSB_Y372_YF]                 0.484
4  DGFTDYAEFAK [MCFD2_Y138_I136T_YF]                  0.88
5            GMRHGYGVRQS [JPH2_Y141]                  0.38

---

# phosphorylation enrichment listing for each entry below
Target: FGFR3 (UniProt P22607)
Sequence (P22607 whole entry, looked up): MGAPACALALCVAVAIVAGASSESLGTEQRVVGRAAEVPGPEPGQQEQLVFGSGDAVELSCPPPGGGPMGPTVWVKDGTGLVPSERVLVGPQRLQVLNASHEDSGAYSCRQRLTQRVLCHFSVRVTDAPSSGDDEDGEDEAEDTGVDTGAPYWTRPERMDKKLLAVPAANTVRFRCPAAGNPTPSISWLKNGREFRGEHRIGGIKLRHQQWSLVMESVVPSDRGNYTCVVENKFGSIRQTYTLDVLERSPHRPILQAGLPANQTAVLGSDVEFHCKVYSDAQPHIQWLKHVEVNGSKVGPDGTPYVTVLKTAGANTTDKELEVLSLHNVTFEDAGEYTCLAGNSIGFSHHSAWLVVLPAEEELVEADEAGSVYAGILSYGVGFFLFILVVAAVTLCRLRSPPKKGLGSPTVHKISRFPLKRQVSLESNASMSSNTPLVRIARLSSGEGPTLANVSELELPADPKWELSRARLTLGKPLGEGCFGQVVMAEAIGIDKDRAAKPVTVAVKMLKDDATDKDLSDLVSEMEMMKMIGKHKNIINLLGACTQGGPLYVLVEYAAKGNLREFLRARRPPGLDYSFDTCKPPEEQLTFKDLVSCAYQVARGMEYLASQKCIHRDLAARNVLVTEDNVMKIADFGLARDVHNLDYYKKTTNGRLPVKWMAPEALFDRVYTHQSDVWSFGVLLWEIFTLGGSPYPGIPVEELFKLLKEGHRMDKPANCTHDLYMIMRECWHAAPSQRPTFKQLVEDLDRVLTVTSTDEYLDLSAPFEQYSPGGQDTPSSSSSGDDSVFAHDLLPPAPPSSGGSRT
Test: phosphorylation enrichment, bacterial display (enrichment ratio); higher = better substrate or ligand; peptides without Tyr show the background
Recorded metric: phosphorylation enrichment

> print(dat)
                        polymer.sequence             recorded.metric  recorded.measurement
 1       FQNSLYAPDYS [FAM92A_Y226_R222Q]  phosphorylation enrichment                 0.926
 2    LIFVSYDDWDF [GRIN2A_Y281_S278F_YF]  phosphorylation enrichment                  2.55
 3        SAAAIYMVRHP [PMP22_Y117_T118M]  phosphorylation enrichment                 0.519
 4  NFFDTCIKTCL [IQGAP2_Y1445_Y1445C_YF]  phosphorylation enrichment                 0.607
 5                HVIKLYGACSQ [RET_Y791]  phosphorylation enrichment                  0.84
 6        QPSALYEDRFL [ASS1_Y83_S79P_YF]  phosphorylation enrichment                  1.12
 7                WIPIQYPIISE [NOG_Y222]  phosphorylation enrichment                 0.571
 8              MASTSYDFCRV [BST2_Y6_YF]  phosphorylation enrichment                 0.829
 9  FCRHNYGAVES [HLA-DRB1_Y112_V114A_YF]  phosphorylation enrichment                 0.604
10            RQSTLYSFFPT [MSH6_Y8_K13T]  phosphorylation enrichment                  7.04
11             SLDLSYFPTSS [EMD_Y181_YF]  phosphorylation enrichment                 0.635

---

Target: Fyn (UniProt P06241)
Sequence (P06241 whole entry, looked up): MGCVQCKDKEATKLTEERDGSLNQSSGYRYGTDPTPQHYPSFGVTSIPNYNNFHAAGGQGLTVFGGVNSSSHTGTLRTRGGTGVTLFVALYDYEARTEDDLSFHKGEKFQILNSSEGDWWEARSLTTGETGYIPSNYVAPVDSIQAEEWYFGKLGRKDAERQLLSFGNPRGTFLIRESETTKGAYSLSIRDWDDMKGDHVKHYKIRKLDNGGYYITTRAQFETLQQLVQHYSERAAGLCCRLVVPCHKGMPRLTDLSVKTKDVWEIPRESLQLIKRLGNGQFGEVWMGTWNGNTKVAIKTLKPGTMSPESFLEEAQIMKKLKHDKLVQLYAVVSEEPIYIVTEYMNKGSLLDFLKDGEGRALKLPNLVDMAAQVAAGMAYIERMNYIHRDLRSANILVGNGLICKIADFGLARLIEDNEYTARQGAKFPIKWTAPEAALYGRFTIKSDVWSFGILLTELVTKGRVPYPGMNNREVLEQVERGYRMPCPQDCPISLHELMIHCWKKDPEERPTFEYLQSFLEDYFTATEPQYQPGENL
Assay: phosphorylation enrichment, bacterial display (enrichment ratio); higher = better substrate or ligand; peptides without Tyr show the background
Recorded metric: phosphorylation enrichment

> print(dat)
                       polymer.sequence  recorded.measurement
 1             HLQQSYLPRGT [TEX45_Y396]                 0.939
 2      LSPNMYNSKFW [TARSL2_Y457_L461F]                 0.911
 3       LEQQKYTVTID [IKBKB_Y199_V203I]                 0.638
 4      QLGLQYSQGLV [EIF2B4_Y214_R209Q]                 0.447
 5      ATDLAYFLVCK [ASL_Y375_R379C_YF]                 0.564
 6     CTTLHYNFMCN [TP53_Y234_I232L_YF]                 0.391
 7        KQELVYPNKKL [OPTN_Y356_T357P]                 0.324
 8               YDCKWYIPLTD [BCR_Y756]                 0.483
 9            TDLAFYLVRKG [ASL_Y376_YF]                 0.545
10         MLEAPYVDRNS [F10_Y384_V382A]                 0.465
11                          IKETHYMVDKC                  0.46
12        KVPAIYGVGTR [CPS1_Y162_D165G]                  2.27
13            VYSSDYFSFVL [USP24_Y2138]                  4.46
14    RFLKDYGEFEV [GINS1_Y156_C152Y_YF]                  0.85
15       SKEPYYVHCIK [MYO1D_Y586_R588H]                  0.58
16          GGDAVYTNGTI [RFX2_Y82_A86T]                  1.17
17             PSSNLYYRWLT [CNGA3_Y168]                  3.84
18   GFVEDYRPPFF [ACVRL1_Y421_I417F_YF]                 0.442
19         PAQAAYQKVVA [HBB_Y131_V127A]                 0.879
20                CPYNLYAEQLS [HGD_Y40]                  3.15
21    HNVPIYEGFGL [ACTA1_Y168_A172G_YF]                  14.9
22               LPIQTYSALNF [DES_Y423]                  13.8
23            LSPNMYNSKLW [TARSL2_Y457]                 0.622
24       RVGVDYEGRGC [PLOD1_Y675_G678R]                 0.542
25             AERKLYSGAQT [ZAP70_Y178]                 0.375
26        KVGNGYISAAE [CALM2_Y100_D96V]                 0.337
27        QVKEQYQDVPM [PKP2_Y659_K654Q]                  0.65
28     ITQRAYRRHLL [SCN1A_Y1926_I1922T]                 0.444
29       TFEYRYLEDQD [CNOT3_Y746_R750Q]                 0.438
30              YRVAGYETQGG [TIA1_Y383]                 0.378
31      FYDANCDGKEY [MAPRE2_Y162_Y162C]                 0.612
32         GIVEEYQLPFF [BMPR1A_Y453_YF]                 0.591
33               TTKGSYSLSVR [HCK_Y180]                 0.461
34      FADIAYSFRHG [PAH_Y166_N167S_YF]                 0.443
35         RIDPDYMGRVR [IGSF9_Y81_V82M]                 0.487
36              MSPPGYKLVTG [GJA1_Y286]                 0.427
37          KGEPQYSSHSS [SIPA1L3_Y1265]                 0.554
38          MTRDIYETDFF [INSR_Y1185_YF]                  1.93
39            SNSATYSGSVA [PDLIM5_Y382]                 0.561
40    EDASEYFENFI [PARP4_Y214_F215Y_YF]                 0.613
41          ALKKPYSVLYK [RPF2_Y59_G60S]                  0.36
42           IPTPAYQSSPA [PDCD6IP_Y727]                 0.406
43  FGGLRYGFGGL [KRTAP20-2_Y13_V17G_YF]                 0.389
44            EAIAKYDLKAT [GRB2_Y7_F9L]                 0.408
45               KVASVYEAPGF [NT5C_Y65]                  7.05
46        SARFRYLLAEK [LDHB_Y173_M175L]                 0.514
47       GQLIVYAPPEW [CNTN6_Y315_F314V]                  1.81
48  QFNMQYSSSAA [ERBB2IP_Y981_I979M_YF]                 0.388
49          KHMADYPDFKF [SOX11_Y113_YF]                 0.502
50               RLNWIYYKDQT [RS1_Y165]                 0.687
51          VHNLDYFKKTT [FGFR3_Y647_YF]                 0.471
52       DFLEKYFKFGC [NNMT_Y24_S29C_YF]                 0.435
53             IRRQGYSHRIL [MYO3B_Y993]                 0.465
54      GFPVRYTDVSN [DNMT3B_Y815_H814R]                 0.423
